- Tested on: CP203
- assay-info: qHTS profiling for inhibitors of Plasmodium falciparum proliferation (AID 504749); further: nearly all actives have a fitted effect of over 60% in size
- assay-setup: P. falciparum in erythrocytes, SYBR Green DNA, 72 h; series mostly up to 28.7 µM
Results filed as inconclusive are left out. Calls of active or inactive are those of the source. The call rests on the fitted dose curve; in most records, active means well fitted inhibition curve with a large enough effect; inconclusive means small, poorly fitted or top-dose-only effect; inactive means flat fitted curve, though single readings scatter.
A correct response names exactly one class from Y = active, N = inactive

IN: Entry Nc1cccc2c1CN(C1CCC(=O)NC1=O)C2=O (configuration not stated) : call = ?
OUT: N

IN: Look up the recorded call for "O=C(NCCO[N+](=O)[O-])c1cccnc1" in this test.
OUT: N

IN: Recorded test call requested for C[Se]CCC(N)C(=O)O (configuration not stated)
OUT: N

IN: Please state the recorded outcome for this compound: "Cc1cc2cc3c(C)cc(=O)oc3c(C)c2o1"
OUT: N

IN: Hello, I am checking results. What call was entered for CC(S)C(=O)NCC(=O)O (configuration not stated) ?
OUT: N

IN: For "COc1cc(OC)c(C(=O)CCCN2CCCC2)c(OC)c1" , which call appears in the assay record?
OUT: N

IN: Per the records of this test, what outcome belongs to "CCCCc1ccc2nc(NC(=O)OC)[nH]c2c1" ?
OUT: N

IN: Which outcome did this test record for the compound COC(=O)C1=C(C)NC(C)=C(C(=O)OCCCN2CCC(c3ccccc3)(c3ccccc3)CC2)C1c1cccc([N+](=O)[O-])c1 (configuration not stated) ?
OUT: Y

IN: // outcome(item) with item = "COc1ccc2cc([C@H](C)C(=O)O)ccc2c1"
OUT: N

IN: Which outcome was entered for the compound "O=C(O)c1cccnc1Nc1cccc(C(F)(F)F)c1" in this test?
OUT: N

IN: // return assay outcome for "Cc1cc(C2CCCCC2)n(O)c(=O)c1"
OUT: Y

IN: Tell me the assay call for "Nc1cc(C(Cl)=C(Cl)Cl)c(S(N)(=O)=O)cc1S(N)(=O)=O" please.
OUT: N
